Reported normalized growth is given for each of the following compounds.
- test protocol: chemical genetic growth profiling, strain panel (AID 1159580);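 also: tested at 20 µM; growth read once vehicle control cultures reached saturation at 30 °C; 1 = growth at the plate median or of vehicle wells; lower values mean less growth of the strain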
- cond: S. cerevisiae deletion strains, growth OD, locus YNL183C, strain NPR1, hits give low values
The whole screen tested about 5,500 compounds, of which about 2,000 (36%) were called active. About 18% were inconclusive and are not listed. The list shows a part of the results.
// return a plain number; no unit text

Solved cases below.
# compound, normalized growth
records = [
    ("Cn1c(=O)c2[nH]cnc2n(C)c1=O", 0.955),
    ("CCN(CC)CCOC(=O)c1ccc(N)cc1", 1),
]

Ask | # input compound: CCCC(=O)O[C@]1(C(=O)CO)CCC2[C@@H]3CCC4=CC(=O)CC[C@]4(C)C3[C@@H](O)C[C@@]21C (stereo partly specified) ; wanted: its normalized growth
Reply | 0.995

Ask | # input compound: "COc1ccc2c(c1)O[C@H]1c3ccc(OC)cc3OC[C@@H]21" ; wanted: its normalized growth
Reply | 0.946

Ask | # input compound: C=CCSCC1Nc2cc(Cl)c(S(N)(=O)=O)cc2S(=O)(=O)N1 (stereo unspecified) ; wanted: its normalized growth
Reply | 0.977

Ask | # input compound: "Cc1cccc(C)c1NC1=NCCCS1" ; wanted: its normalized growth
Reply | 0.96

Ask | # input compound: "CCCCCCOc1ccccc1C(N)=O" ; wanted: its normalized growth
Reply | 0.869

---

Reported normalized growth is given for each of the following compounds.
- test protocol: chemical genetic growth profiling, strain panel (AID 1159580)
- cond: S. cerevisiae deletion strains, growth OD, locus YOR083W, strain WHI5 (second series), hits give low values
In all, about 5,500 compounds went through this assay and about 2,000 (36%) were called active. Inconclusive results (about 18%) are left out. The list shows a part of the results.
// return a plain number; no unit text

Solved cases below.
# compound, recorded measurement
data = [
    ("CCCCCCCCCCCCCC(=O)O[C@@H]1[C@@H](C)[C@@]2(O)[C@@H](C=C(CO)C[C@@]3(O)C(=O)C(C)=C[C@@H]23)C2C(C)(C)[C@@]21OC(C)=O (some centres undefined)", 1.01),
    ("COC(=O)C1=CCCN(C)C1", 1.02),
    ("Cc1ccc([N+](=O)[O-])cc1S(=O)(=O)N(C)C", 0.955),
    ("CCNC(=O)[C@H]1O[C@@H](n2cnc3c(N)ncnc32)C(O)[C@H]1O (some centres undefined)", 1.04),
    ("O=C(O)c1cc2cc(Cc3cccnc3)ccc2o1", 1.03),
]

Ask | # input compound: "CC1(C)NC(=O)N(c2ccc([N+](=O)[O-])c(C(F)(F)F)c2)C1=O" ; wanted: its normalized growth
Reply | 0.979

Ask | # input compound: "C[C@@H](CN1CCC(Cc2ccccc2)CC1)[C@@H](O)c1ccc(O)cc1" ; wanted: its normalized growth
Reply | 1

Ask | # input compound: NC(=O)C1=CN(C2OC(COP(=O)(O)OP(=O)(O)OC[C@H]3O[C@@H](n4cnc5c(N)ncnc54)C(OP(=O)(O)O)[C@H]3O)C(O)C2O)C=CC1 (some centres undefined) ; wanted: its normalized growth
Reply | 0.991

Ask | # input compound: CC(C(O)c1ccc(O)cc1)N1CCC(Cc2ccccc2)CC1 (centres undefined) ; wanted: its normalized growth
Reply | 1.04

---

- test protocol: chemical genetic growth profiling, strain panel (AID 1159580)
- cond: S. cerevisiae deletion strains, growth OD, locus YIR030C, strain dcg1
In all, about 5,500 compounds went through this assay and about 2,000 (36%) were called active. About 18% were inconclusive and are not listed. Cut-off read from the data, not from the text of the source: active = normalized growth mostly below about 0.91 (no sharp cut-off); inconclusive = no clear call, values can overlap the other calls; inactive = mostly above about 0.92. The list shows a part of the results.
Lab note: assign the record to one of true = active, false = inactive

Below, 6 compounds whose answers are already recorded.
# compound, assigned category
records = [
    ("CC(=O)Oc1c(C)cccc1C(=O)O", "false"),
    ("CCCCOC(=O)c1ccccc1C(=O)OCCCC", "false"),
    ("O=C(O)CN1C(=O)c2cccc3cccc(c23)C1=O", "false"),
    ("CCCCN(CCCC)CCCOC(=O)c1ccc(N)cc1", "false"),
    ("C=C1CCC2C(CC2(C)C)C(=O)CCC1O (stereo unspecified)", "false"),
    ("NC(N)=NS(=O)(=O)c1ccc(N)cc1", "false"),
]

Ask | Please indicate how the test categorized CCCC(=O)O[C@]1(C(=O)CO)CCC2[C@@H]3CCC4=CC(=O)CC[C@]4(C)C3[C@@H](O)C[C@@]21C (stereo partly specified) .
Reply | false

Ask | Please indicate how the test categorized O=C1CC2OCC=C3CN4CC[C@]56c7ccccc7N1C5[C@H]2[C@H]3CC46 (stereo partly specified) .
Reply | false

Ask | Please indicate how the test categorized C=C1CCC(C2CC(=O)OC2=O)C(=O)CCC2C1CC2(C)C (stereo unspecified) .
Reply | false

---

Reported normalized growth is given for each of the following molecules.
- test protocol: chemical genetic growth profiling, strain panel (AID 1159580)
- cond: S. cerevisiae deletion strains, growth OD, locus YML032C, strain rad52, hits give low values
About 2,000 (36%) of roughly 5,500 compounds were called active. Another 18% or so got no clear call; they are omitted. The list shows a part of the results.
// return a plain number; no unit text

# smiles entry, normalized growth
measured = [
    ("CC(=O)Oc1c(C)cccc1C(=O)O", 1.02),
    ("O=C1NC(=O)C(=O)C(=O)N1", 0.976),
    ("Cc1ccc(Cl)c(Nc2ccccc2C(=O)O)c1Cl", 0.862),
    ("Cc1c(Cl)cccc1Nc1ccccc1C(=O)O", 0.792),
    ("CCNC(=O)CC[C@H](N)C(=O)O", 1.01),
]

Ask | # input molecule: "Nc1ccc(N=Nc2ccccc2)c(N)n1" ; wanted: its normalized growth
Reply | 0.938

Ask | # input molecule: "Cc1cccc(Nc2ccccc2C(=O)O)c1C" ; wanted: its normalized growth
Reply | 0.891

---

- test protocol: chemical genetic growth profiling, strain panel (AID 1159580);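 also: tested at 20 µM; growth read once vehicle control cultures reached saturation at 30 °C; 1 = growth at the plate median or of vehicle wells; lower values mean less growth of the strain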
- cond: S. cerevisiae deletion strains, growth OD, locus YMR205C, strain PFK2 (second series)
Out of some 5,500 compounds screened, about 2,000 (36%) were called active. About 18% were inconclusive and are not listed. No stated cut-off is given here; in the data, active means normalized growth mostly below about 0.91 (no sharp cut-off); inconclusive means no clear call, values can overlap the other calls; inactive means mostly above about 0.92. Some of the results follow.
Lab note: assign the record to one of active, inactive

Below, 5 molecules whose answers are already recorded.
# smiles entry, assigned category
rows = [
    ("O=C(Nc1ccc(Cl)cc1)OCCSc1nc2ccccc2s1", "inactive"),
    ("CC1(C)OC(=O)C(=Cc2cccn2-c2ccc(OC(F)(F)F)cc2)C(=O)O1", "inactive"),
    ("CC1(C)OC(=O)C(=Cc2cccn2-c2ccc(C(F)(F)F)cc2)C(=O)O1", "inactive"),
    ("COC(=O)c1sccc1-c1ccc(/C=C/[N+](=O)[O-])o1", "active"),
    ("CCc1ccn2cc(Nc3ccccc3Cl)nc2c1", "inactive"),
]

Ask | Please indicate how the test categorized "Cc1c(C(=S)Nc2ccccc2)sc2ccccc12" .
Reply | inactive

---

- test protocol: chemical genetic growth profiling, strain panel (AID 1159580);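 also: tested at 20 µM; growth read once vehicle control cultures reached saturation at 30 °C; 1 = growth at the plate median or of vehicle wells; lower values mean less growth of the strain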
- cond: S. cerevisiae deletion strains, growth OD, locus YHR013C, strain ard1, hits give low values
The whole screen tested about 5,500 compounds, of which about 2,000 (36%) were called active. Inconclusive results (about 18%) are left out. Some of the results follow.
property label: normalized growth
// return a plain number; no unit text

Solved cases below.
# compound, normalized growth
measured = [
    ("CN1C(C(=O)Nc2ccccn2)=C(O)c2ccccc2S1(=O)=O", 0.91),
    ("CC1(C)NC(=O)N(c2ccc([N+](=O)[O-])c(C(F)(F)F)c2)C1=O", 0.97),
    ("Cc1cc(NC(=O)C2=C(O)c3ccccc3S(=O)(=O)N2C)no1", 0.98),
    ("CC(C)(Oc1ccc(C2CC2(Cl)Cl)cc1)C(=O)O (stereo unspecified)", 0.973),
    ("CC(C)NCC(O)c1cc(O)cc(O)c1 (stereo unspecified)", 0.961),
]

Now consider the entry below.
Ask | # input compound: "CC(C)C(=O)Nc1ccc([N+](=O)[O-])c(C(F)(F)F)c1" ; wanted: its normalized growth
Reply | 0.995

---

- test protocol: chemical genetic growth profiling, strain panel (AID 1159580);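 also: tested at 20 µM; growth read once vehicle control cultures reached saturation at 30 °C; 1 = growth at the plate median or of vehicle wells; lower values mean less growth of the strain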
- cond: S. cerevisiae deletion strains, growth OD, locus YOR061W, strain CKA2
Hit rate of the full screen: of about 5,500 compounds, about 2,000 (36%) were called active. Another 18% or so got no clear call; they are omitted. No stated cut-off is given here; in the data, active means normalized growth mostly below about 0.91 (no sharp cut-off); inconclusive means no clear call, values can overlap the other calls; inactive means mostly above about 0.92. This is one part of the list.
Lab note: assign the record to one of active, inactive

Ask | Please indicate how the test categorized C#CCCCCCCCCCCCC(=O)CC(O)COC(C)=O (stereo unspecified) .
Reply | active

Ask | Please indicate how the test categorized O=S1OCC2C(CO1)C1(Cl)C(Cl)=C(Cl)C2(Cl)C1(Cl)Cl (stereo unspecified) .
Reply | inactive

Ask | Please indicate how the test categorized "O=C(O)CN(CC(=O)O)Cc1cc2c(-c3ccccc3C(=O)O)c3cc(CN(CC(=O)O)CC(=O)O)c(=O)cc-3oc2cc1O" .
Reply | inactive

Ask | Please indicate how the test categorized C#CCCCCCCCCCCCC(O)CC(O)COC(C)=O (stereo unspecified) .
Reply | inactive

Ask | Please indicate how the test categorized "Cc1nc(-c2ccc(S(=O)(=O)Nc3ccc(Br)cc3Cl)s2)cs1" .
Reply | inactive

Ask | Please indicate how the test categorized "CN1C(C(=O)Nc2ccccn2)=C(O)c2ccccc2S1(=O)=O" .
Reply | inactive

Ask | Please indicate how the test categorized "NC(N)=NS(=O)(=O)c1ccc(N)cc1" .
Reply | inactive

Ask | Please indicate how the test categorized CC(=O)OCC(OC(C)=O)C(OC(C)=O)C(OC(C)=O)C(OC(C)=O)C(COC(C)=O)OC(C)=O (stereo unspecified) .
Reply | inactive
